# Assay explanation: Inhibition of yeast alpha-glucosidase using 4-nitrophenyl-alpha-D-glucopyranoside as substrate preincubated for 15 mins followed by substrate addition measured after 20 mins
# Design: species or system Saccharomyces cerevisiae
Attribute measured: pIC50
Give bare numbers, as −log10 of the molar value.

// below: answered compounds
{"columns": ["Compound", "pIC50"],
 "data": [
  ["C[C@H]1[C@H](C)CC[C@]2(C(=O)O)CC[C@]3(C)C(=CC[C@@H]4[C@@]5(C)C[C@@H](O)[C@H](O)[C@@](C)(CO)[C@@H]5CC[C@]43C)[C@H]12", 4.00],
  ["C[C@H]1O[C@H](O[C@H]2[C@H](O)[C@@H](O)[C@@H](O[C@H]3[C@H](O)[C@@H](O)C(O)O[C@@H]3CO)O[C@@H]2CO)[C@H](O)[C@@H](O)[C@@H]1N[C@H]1C=C(CO)[C@@H](O)[C@H](O)[C@H]1O (stereo not given in full)", 2.61],
  ["C[C@H]1[C@H](C)CC[C@]2(C(=O)O)CC[C@]3(C)C(=CC[C@@H]4[C@@]5(C)C[C@@H](O)[C@H](O)C(C)(C)[C@@H]5CC[C@]43C)[C@H]12", 4.76],
  ["CC1(C)CC[C@]2(C(=O)O)CC[C@]3(C)C(=CC[C@@H]4[C@@]5(C)CC[C@H](O)C(C)(C)[C@@H]5CC[C@]43C)[C@@H]2C1", 4.45],
  ["C[C@H]1[C@H](C)CC[C@]2(C(=O)O)CC[C@]3(C)C(=CC[C@@H]4[C@@]5(C)CC[C@H](O)C(C)(C)[C@@H]5CC[C@]43C)[C@H]12", 4.92]
]}

# per-item lookup of pIC50; items listed below
1. C=C(C)[C@@H]1CC[C@]2(C(=O)O)CC[C@]3(C)[C@H](CC[C@@H]4[C@@]5(C)CC[C@H](O)C(C)(C)[C@@H]5CC[C@]43C)[C@@H]12
2. C=C(C)[C@@H]1CC[C@]2(CO)CC[C@]3(C)[C@H](CC[C@@H]4[C@@]5(C)CC[C@H](O)C(C)(C)[C@@H]5CC[C@]43C)[C@@H]12

4.83
4.28
